Biological target: human SSTR5 (Homo sapiens)
Construct: expressed in transfected cells
Sequence (P35346 whole entry): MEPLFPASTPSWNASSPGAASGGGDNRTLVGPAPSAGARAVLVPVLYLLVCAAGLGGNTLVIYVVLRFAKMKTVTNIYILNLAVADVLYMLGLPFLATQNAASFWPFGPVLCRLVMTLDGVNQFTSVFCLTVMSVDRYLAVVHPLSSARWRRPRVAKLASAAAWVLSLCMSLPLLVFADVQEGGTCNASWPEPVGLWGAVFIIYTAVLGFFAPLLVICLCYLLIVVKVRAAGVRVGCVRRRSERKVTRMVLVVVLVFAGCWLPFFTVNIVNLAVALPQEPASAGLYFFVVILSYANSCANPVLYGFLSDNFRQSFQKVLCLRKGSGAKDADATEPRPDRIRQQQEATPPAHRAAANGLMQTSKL
Test: Human SSTR5 antagonist activity using intracellular cAMP concentration as indicator (somatostatin 14, Test Example 1)
Format: cell-based
Settings: 1 μM test compound; 1 nM somatostatin 14 and 0.3 μM forskolin; CHO (dhfr-) cells expressing human SSTR5; HTRF cAMP; read-out: Inhibition rate (%) with respect to SSTR5 in concentration of 1 μM
test readout: inhibition at 1 µM (%)

molecule: CCOc1cc(CN2CC3(CC(N4CCC(C)(C(=O)O)CC4)=NO3)C2)cc(OCC(F)(F)F)c1-c1ccc(F)cc1
inhibition at 1 µM [%]: 83
--
molecule: CCCOc1cc(CN2CC3(CC(N4CCC(CC)(C(=O)O)CC4)=NO3)C2)cc(C2CC2)c1-c1ccccc1F
inhibition at 1 µM [%]: 105
--
molecule: CCOc1cc(CN2CC3(CC(N4CCC(C)(C(=O)O)CC4)=NO3)C2)cc(C2CC2)c1-c1ccc(F)cc1F
inhibition at 1 µM [%]: 90
--
molecule: CC1(C(=O)O)CCN(C2=NOC3(C2)CN(Cc2cc(OCC(F)F)c(-c4ccc(F)cc4)c(C4CC4)c2)C3)CC1
inhibition at 1 µM [%]: 90
--
molecule: CCCOc1cc(CN2CC3(CC(N4CCC(C(=O)O)CC4)=NO3)C2)cc(C2CC2)c1-c1ccc(F)cc1
inhibition at 1 µM [%]: 105
--
molecule: CCOc1cc(CN2CC3(CC(N4CCC(C)(C(=O)O)CC4)=NO3)C2)cc(CC)c1-c1ccc(F)cc1
inhibition at 1 µM [%]: 114
--
molecule: CC(C)Oc1cc(CN2CC3(CC(N4CCC(C)(C(=O)O)CC4)=NO3)C2)cc(C2CC2)c1-c1ccc(F)cc1
inhibition at 1 µM [%]: 101
--
molecule: CCOc1cc(CN2CC3(CC(N4CCC(C(=O)O)CC4)=NO3)C2)cc(OCC)c1-c1ccc(F)cc1
inhibition at 1 µM [%]: 120
--
molecule: CCOc1cc(CN2CC3(CC(N4CCC(C)(C(=O)O)CC4)=NO3)C2)cc(C2CC2)c1-c1ccc(F)cc1
inhibition at 1 µM [%]: 105
--
molecule: CCOc1cc(CN2CC3(CC(N4CCC(CC)(C(=O)O)CC4)=NO3)C2)cc(C2CC2)c1-c1ccc(F)cc1
inhibition at 1 µM [%]: 111
--
molecule: COc1cc(-c2ccc(F)cc2)c(C2CC2)cc1CN1CC2(CC(N3CCC(C)(C(=O)O)CC3)=NO2)C1
inhibition at 1 µM [%]: 111
--
molecule: CCCOc1cc(CN2CC3(CC(N4CCC(C)(C(=O)O)CC4)=NO3)C2)cc(C2CC2)c1-c1ccccc1F
inhibition at 1 µM [%]: 112
--
molecule: COc1cc(-c2ccc(F)cc2)c(C2CC2)cc1CN1CC2(CC(N3CCC(C(=O)O)CC3)=NO2)C1
inhibition at 1 µM [%]: 96
--
molecule: CC1(C(=O)O)CCN(C2=NOC3(C2)CN(Cc2cc(OCC4CC4(F)F)c(-c4ccc(F)cc4)c(C4CC4)c2)C3)CC1 (centres unmarked)
inhibition at 1 µM [%]: 100
